assay: qHTS assay to identify small molecule inhibitors of chordoma cells - UCH-1 (AID 1259355); conditions: UCH-1 chordoma viability, CellTiter-Glo, 48 h, combination; series mostly up to 46.1 µM; further: nearly all actives have a fitted effect of over 55% in size
Results filed as inconclusive are left out. Active and inactive are the calls of the source. The call rests on the fitted dose curve; in most records, active means well fitted cell-killing curve with a large enough effect; inconclusive means small, poorly fitted or top-dose-only effect, or effect the other way; inactive means no such curve, though single readings can be large or run the other way.
Please answer using one outcome listed in T for active, F for inactive

I'd appreciate the recorded outcome for C=CCC1(C(C)CCC)C(=O)N=C(S)NC1=O (stereo not drawn) from this test.
F

Hello, I am checking results. What call was entered for "O=C1CN(O)C(c2ccccc2)=c2cc(Cl)ccc2=N1" ?
F

Each compound tested received a call. Report the one for OC(c1ccccc1)(c1ccccc1)C1CN2CCC1CC2 (stereo not drawn) .
F

Tell me the assay call for "ClC=C(Cl)Cl" please.
F

Each compound tested received a call. Report the one for C#CCN1CC(=O)N(COC(=O)C2C(C=C(C)C)C2(C)C)C1=O (stereo not drawn) .
F

Recorded call for CNC(C)C(O)c1ccc(O)cc1 (stereo not drawn) ?
F

Dear colleague, could you share the recorded outcome for "Oc1cccc[c]1[Hg][Cl]" when you have a moment?
T

Hi, sorry to bother you, what did the test record for COC(COC(N)=O)C1=C(N2CC2)C(=O)C(C)=C(N2CC2)C1=O (stereo not drawn) ?
T

Assay outcome for "CC[N+](C)(CC)CCOC(=O)C(O)(c1ccccc1)c1ccccc1" : what was it?
F

Tell me the recorded outcome of this test for "CC(C)(O)[C@@H]1[C@H]2OC(=O)[C@@H]1[C@]1(O)C[C@H]3O[C@]34C(=O)O[C@H]2[C@]14C" .
F

Dear colleague, could you share the recorded outcome for CC(C)(O)C1C2OC(=O)C1C1(O)CC3OC34C(=O)OC2C14C (stereo not drawn) when you have a moment?
F

Query: recorded result category for "C[C@]12CCC(=O)C[C@@H]1CC[C@@H]1[C@@H]2CC[C@]2(C)[C@@H](O)CC[C@@H]12" in this test
F

Check the results log: what was the call for "CCC/C=C/C=C/C(=O)O[C@H]1/C(=C/C(=O)OC)C[C@H]2C[C@H]([C@@H](C)O)OC(=O)C[C@H](O)C[C@@H]3C[C@H](OC(C)=O)C(C)(C)[C@](O)(C[C@@H]4C/C(=C/C(=O)OC)C[C@H](/C=C/C(C)(C)[C@]1(O)O2)O4)O3" ?
F

What is the recorded call for this compound in the test? "O=[N+]([O-])c1cc(I)c(O)c(I)c1"
F

In this assay, the call recorded for "Cc1ccccc1-n1c(C)nc2ccccc2c1=O" was what?
F

Any idea what this test logged for "CN1[C@H]2CC[C@@H]1[C@@H](C(=O)O)[C@@H](OC(=O)c1ccccc1)C2" ?
F

Hey, what did the test say about "C[C@]12C=CC(=O)C=C1CC[C@@H]1[C@@H]2CC[C@]2(C)OC(=O)CC[C@@H]12" ?
F

Dear colleague, could you share the recorded outcome for CCCCNCC(O)c1ccc(O)cc1 (stereo not drawn) when you have a moment?
F

Test call for this compound, please: "CCOC(=O)c1ccccc1C(=O)OCC"
F

Please state the recorded outcome for this compound: CCNC1(c2cccs2)CCCCC1=O (stereo not drawn)
F

Check the results log: what was the call for COc1ccc2c(c1OC)C(=O)OC2C1c2cc3c(cc2CCN1C)OCO3 (stereo not drawn) ?
F

For "CNC(=O)Oc1ccccc1C(=O)Nc1ccccc1" , what call appears in the results of this test?
F

Recorded call for "O=c1ccc2cc(O[C@@H]3O[C@H](CO)[C@@H](O)[C@H](O)[C@H]3O)c(O)cc2o1" ?
F

Would you mind telling me which call this test gave "OC[C@@H](O)[C@H]1O[C@@H]2O[C@H](C(Cl)(Cl)Cl)O[C@@H]2[C@H]1O" ?
F

Can you look up the reported call for "CCC(=O)O[C@]1(c2ccccc2)CCN(C)C[C@H]1C" for me?
F

GET /call?item= "CCCCCCCCOC(=O)c1ccccc1C(=O)OCCCCCCCC" returns the recorded outcome of this test.
F

# outcome recorded in this test, key = "Cc1ccccc1-n1c(CF)nc2ccc(N)cc2c1=O"
F

In this assay, the call recorded for "CCOc1ccc2c3c1O[C@H]1[C@@H](O)C=C[C@H]4[C@@H](C2)N(C)CC[C@@]341" was what?
F

Given "CNC(=O)OCC[N+](C)(C)C" , state the outcome it received in this test.
F

State the result this test recorded for FC(F)OC(F)(F)C(F)Cl (stereo not drawn) .
F

Name the outcome recorded for CC(Cc1ccccc1)NC=O (stereo not drawn) in the assay.
F

Any idea what this test logged for "CC[C@H](C)[C@H]1O[C@]2(C=C[C@@H]1C)C[C@@H]1C[C@@H](C/C=C(\C)[C@@H](O[C@H]3C[C@H](OC)[C@@H](O[C@H]4C[C@H](OC)[C@@H](O)[C@H](C)O4)[C@H](C)O3)[C@@H](C)/C=C/C=C3\CO[C@@H]4[C@H](O)C(C)=C[C@@H](C(=O)O1)[C@]34O)O2" ?
F

Kindly provide the recorded test outcome for the following compound: "O=Cc1ccco1"
F

Recorded call for "S=C(S)N1CCNCC1" ?
F

GET /call?item= CCNC(C)Cc1cccc(C(F)(F)F)c1 (stereo not drawn) returns the recorded outcome of this test.
F

Look up the recorded call for "C[C@]12CC[C@H]3[C@@H](CCC4=C(O)C(=O)CC[C@@H]43)[C@@H]1CC[C@@H]2OC(=O)CCC1CCCC1" in this test.
F

Dear all, I need the recorded test outcome for C[N+]1(C)[C@@H]2CC[C@H]1CC(OC(=O)c1c[nH]c3ccccc13)C2 (stereo partly drawn) , thank you.
F

Identify the outcome logged in this assay for the compound shown: "CC(=O)[C@H]1CC[C@H]2[C@@H]3CC[C@@H]4C[C@H](O)CC[C@]4(C)[C@H]3CC[C@]12C"
F

Assay outcome for "O=P(O)(O)C(Cl)(Cl)P(=O)(O)O" : what was it?
F

Assay outcome for "C[C@H]1CCC[C@H](O)CCCCCc2cc(O)cc(O)c2C(=O)O1" : what was it?
F

Hello, I am checking results. What call was entered for CCC(N)Cc1c[nH]c2ccccc12 (stereo not drawn) ?
F

Which outcome was assigned to "CCC(=O)O[C@@](Cc1ccccc1)(c1ccccc1)[C@@H](C)CN(C)C" in this test?
F

What call does the record list for "CC(=O)O[C@H]1CC[C@@]2(C)C(=CC[C@@H]3[C@@H]2CC[C@]2(C)C(=O)CC[C@@H]32)C1" ?
F
